# assay.info: Aqueous solubility in pH 6.8 by HPLC analysis
# Assay type: physicochemical
# assay.conditions: buffer

[
  {
    "smiles.input": "c1ccc(CCc2nc3cc(-c4ccco4)cnc3[nH]2)cc1",
    "solubility": "6.4 µg/mL"
  }
]

###

# assay.info: Permeability of compound in pH 7.4 in PRISMA HT buffer at 10 umol/L incubated for 3 hrs by LC/MS/MS based PAMPA assay
# Format: ADME
# assay.conditions: read-out: permeability
measure: Papp at 3 h, 10 µM (×10⁻⁶ cm/s)

[
  {
    "smiles.input": "c1ccc(CCc2nc3cc(-c4ccco4)cnc3[nH]2)cc1",
    "unit.text": "×10⁻⁶ cm/s",
    "val": 33.2
  }
]
